Attribution: PubChem BioAssay AID1963433

Would you mind telling me the reported viability, T/C of each entry?
# Tested on: 772245-204-R-J1-PDC complex spheroid growth;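 note: compound exposure lasted seven days; 100% = DMSO vehicle control viability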
# test method notes: Anticancer human tumor 772245-204-R-J1-PDC patient-derived rhabdomyosarcoma cell line growth inhibition [Asc]
# assay setup: second compound 0.0949 µM; first compound 0.316 µM; stronger effect = lower value
Give bare numbers, in %.

[
  {
    "compound": "O=C(c1cc(Cc2n[nH]c(=O)c3ccccc23)ccc1F)N1CCN(C(=O)C2CC2)CC1 + CCN1C(C(=O)NC23CCC(C(=O)O)(CC2)CC3)C(c2cccc(Cl)c2F)C2(C(=O)Nc3cc(Cl)ccc32)C12CCCCC2",
    "viability, T/C [%]": 97.2
  }
]

List the reported viability, T/C of each compound below.
1. O=C(c1ccc(F)c(F)c1Nc1ccc(I)cc1F)N1CC(O)([C@@H]2CCCCN2)C1 + CCN1C(C(=O)NC23CCC(C(=O)O)(CC2)CC3)C(c2cccc(Cl)c2F)C2(C(=O)Nc3cc(Cl)ccc32)C12CCCCC2
2. C#Cc1c(F)ccc2cc(O)cc(-c3ncc4c(N5CC6CCC(C5)N6)nc(OCC56CCCN5CC(F)C6)nc4c3F)c12 (stereo not drawn) + CCN1C(C(=O)NC23CCC(C(=O)O)(CC2)CC3)C(c2cccc(Cl)c2F)C2(C(=O)Nc3cc(Cl)ccc32)C12CCCCC2
3. CNC(C)C(=O)NC1CN(S(=O)(=O)c2cccc(S(=O)(=O)N3CCC4CCC(C(=O)NC(c5ccccc5)c5ccccc5)N4C(=O)C(NC(=O)C(C)NC)C3)c2)CCC2CCC(C(=O)NC(c3ccccc3)c3ccccc3)N2C1=O (stereo not drawn) + CCN1C(C(=O)NC23CCC(C(=O)O)(CC2)CC3)C(c2cccc(Cl)c2F)C2(C(=O)Nc3cc(Cl)ccc32)C12CCCCC2

[115, 93, 79.2]
